Experimental protocol: NCI Yeast Anticancer Drug Screen. Data for the sgs1 mgt1 strain (AID 161);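 note: 0% = growth of cultures given vehicle only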
Condition info: S. cerevisiae sgs1 mgt1 strain, at 50.0 µM, active compounds read high
About 79,000 compounds went through this panel and 15% of them were active in at least one assay; those are over-represented in the sample as a whole. Activity calls are given as the source filed them. Cut-off read from the data, not from the text of the source: active = growth inhibition above about 70%; inactive = the rest.
growth inhibition overview
Readout: growth inhibition

[[record]]
smi = "Cc1cc(N2CCC(N3CCCC3)CC2)nc(/N=C(\\N)Nc2ccc(Cl)c(Cl)c2)n1"
readout = "growth inhibition"
val = "-6.05% (inactive)"

[[record]]
smi = "O=c1[nH]cc(Cl)cc1O"
readout = "growth inhibition"
val = "-1.35% (inactive)"

[[record]]
smi = "O=C(Nc1ccccc1)OCCc1ccccc1"
readout = "growth inhibition"
val = "27.4% (inactive)"


----------
Experimental protocol: NCI Yeast Anticancer Drug Screen. Data for the mlh1 rad18 strain (AID 175)
Condition info: S. cerevisiae mlh1 rad18 strain growth inhibition; at 50.0 µM; active compounds read high
The panel holds about 79,000 compounds, 15% with a hit somewhere; the sample as a whole holds those more often.
Readout: growth inhibition (%)

[[record]]
compound = "CC(=O)OCCC(C)CCC=C(C)C (configuration not stated)"
val = 2.4

[[record]]
compound = "O=c1[nH]c(O)c(/C=C2/C=Nc3ccccc32)[nH]1"
val = 0.6

[[record]]
compound = "O=C(NCc1ccco1)Nc1c(Cl)cc(Cl)cc1Cl"
val = -3.6

[[record]]
compound = "COC(=O)Nc1cccc(Cl)c1OC"
val = -6.55

[[record]]
compound = "c1ccc(/C(=N\\N=C(/c2ccccc2)c2cccs2)c2cccs2)cc1"
val = 10.6

[[record]]
compound = "CC(=O)OCC1CCCO1 (configuration not stated)"
val = -32

[[record]]
compound = "COC(=O)c1[nH]c(=O)c(C#N)c(C(=O)OC)c1C(=O)c1ccccc1"
val = 12


----------
Experimental protocol: NCI Yeast Anticancer Drug Screen. Data for the rad50 strain (AID 155);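 note: 0% = growth of vehicle-only cultures of the same strain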
Condition info: S. cerevisiae rad50 strain growth inhibition; at 50.0 µM; active compounds read high
Compounds without any hit were thinned out: in the full panel of roughly 79,000, 15% have a hit.
Readout: growth inhibition (%)

[[record]]
smi = "Clc1ccc(-c2n[nH]c3c2Cc2ccccc2-3)cc1Cl"
measurement_units = "%"
val = -5.1

[[record]]
smi = "Cc1ccc(C)n1-c1ccsc1C(=O)NNC(=O)CCl"
measurement_units = "%"
val = -13.8

[[record]]
smi = "CC(C)=NNc1ccc([N+](=O)[O-])cc1[N+](=O)[O-]"
measurement_units = "%"
val = 35.1

[[record]]
smi = "CCN=c1cc2sc3cc(NCC)c(C)cc3nc-2cc1C"
measurement_units = "%"
val = -22.1

[[record]]
smi = "CC(=O)Cc1ccc(-c2ccccc2)cc1"
measurement_units = "%"
val = 18.4


----------
Below, each of the molecules is paired with its reported growth inhibition value.
Experimental protocol: NCI Yeast Anticancer Drug Screen. Data for the cln2 rad14 strain (AID 165);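 note: 0% = growth equal to vehicle treated cultures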
Condition info: S. cerevisiae cln2 rad14 strain, at 50.0 µM, active compounds read high
Compounds without any hit were thinned out: in the full panel of roughly 79,000, 15% have a hit. Active and inactive are the calls of the source. Cut-off read from the data, not from the text of the source: active = growth inhibition above about 70%; inactive = the rest.
Readout: growth inhibition

[[record]]
molecule = "O=C(O)COCC(=O)O"
readout = "growth inhibition"
val = "-53.2% (inactive)"

[[record]]
molecule = "S=C1NCc2cncnc2N1"
readout = "growth inhibition"
val = "-8.7% (inactive)"

[[record]]
molecule = "CCOC(=O)Nc1nn[nH]n1"
readout = "growth inhibition"
val = "4.15% (inactive)"

[[record]]
molecule = "C=CCNc1nnc(C)s1"
readout = "growth inhibition"
val = "-16.2% (inactive)"

[[record]]
molecule = "O=S(=O)(O)C(Nc1ccccc1)c1ccccc1 (stereo not drawn)"
readout = "growth inhibition"
val = "-0.25% (inactive)"

[[record]]
molecule = "CC(C)OC(C(=O)O)c1ccccc1 (stereo not drawn)"
readout = "growth inhibition"
val = "11.8% (inactive)"

[[record]]
molecule = "CCN(CC)C(=O)/C=C(/C)c1ccccc1"
readout = "growth inhibition"
val = "-6.95% (inactive)"

[[record]]
molecule = "O=C(O)c1ccc(S(=O)(=O)O)cc1"
readout = "growth inhibition"
val = "-12.4% (inactive)"

[[record]]
molecule = "CN(C)Cc1cc(C(C)(C)CC(C)(C)C)ccc1O"
readout = "growth inhibition"
val = "-43.9% (inactive)"

[[record]]
molecule = "CN(C)CCN(C)CC(C)(C)C(=O)/C=C/c1ccc(Cl)cc1"
readout = "growth inhibition"
val = "-2.65% (inactive)"

[[record]]
molecule = "COC(=O)Nc1nc2ccc(C(=O)c3ccc(F)cc3)cc2[nH]1"
readout = "growth inhibition"
val = "-26.4% (inactive)"

[[record]]
molecule = "O=C(O)/C=C/c1ccc2c(c1)CCC2"
readout = "growth inhibition"
val = "23.8% (inactive)"

[[record]]
molecule = "CC1CC(O)C2C3(C)CCCC2(COC3=O)C12CCC1(CCOC1=O)O2 (stereo not drawn)"
readout = "growth inhibition"
val = "25.9% (inactive)"

[[record]]
molecule = "O=[N+]([O-])c1ccc(N=Nc2ccc(O)c3ccccc23)cc1"
readout = "growth inhibition"
val = "16.6% (inactive)"

[[record]]
molecule = "CCCCCCCCCCC1CO1 (stereo not drawn)"
readout = "growth inhibition"
val = "-23.1% (inactive)"

[[record]]
molecule = "Cc1ccncc1C(N)=O"
readout = "growth inhibition"
val = "-0.85% (inactive)"

[[record]]
molecule = "O=C1OC[C@H]2[C@H](c3ccc(O)c(O)c3)c3cc(O)c(O)cc3C[C@H]12"
readout = "growth inhibition"
val = "15.8% (inactive)"

[[record]]
molecule = "CNC(=S)NC(C)(C)C"
readout = "growth inhibition"
val = "-29.2% (inactive)"

[[record]]
molecule = "CN(C)c1nc2c([nH]1)c(=O)n(C)c(=O)n2C"
readout = "growth inhibition"
val = "5.2% (inactive)"

[[record]]
molecule = "Nc1ccc(N=Nc2ccc(S(=O)(=O)O)cc2)c2ccccc12"
readout = "growth inhibition"
val = "-25.9% (inactive)"

[[record]]
molecule = "O=C1C=CC(=O)N1c1ccc(I)cc1Cl"
readout = "growth inhibition"
val = "23.8% (inactive)"

[[record]]
molecule = "Cc1ccccc1N=C(c1ccccc1)C1C(=O)c2ccccc2C1=O"
readout = "growth inhibition"
val = "29% (inactive)"

[[record]]
molecule = "O=[N+]([O-])c1ccc(/C=C/C=C/c2ccccc2)c(Cl)c1"
readout = "growth inhibition"
val = "-45.1% (inactive)"


Cited source for all entries: PubChem BioAssay (NCI)
